// data source = patent US9328138B2

Molecular target: HCV genotype 1b (BK) NS3 modified enzyme with a R155K mutation (Hepatitis C virus genotype 1b, UniProt P26663, R1181K)
Construct: HCV genotype 1b (BK) NS3 modified enzyme
Assay: HCV NS3 protease time-resolved fluorescence (TRF) assay, genotype 1b R155K
Assay type: biochemical
Conditions: Ki 1b R155K, genotype 1b (BK) NS3 R155K; single value
property: pKi
# pKi is unitless: minus log10 of the molar concentration; print number only

>  <compound>
C=C[C@@H]1C[C@]1(NC(=O)[C@@H]1C[C@@H]2CN1C(=O)[C@H](C(C)(C)C)NC(=O)O[C@@H]1C[C@H]1CCCCCc1c(nc3cc(C(C)C)ccc3c1OCCCNC(C)C)O2)C(=O)NS(=O)(=O)C1(C)CC1 [Example 160]

>  <property>
pKi

>  <endpoint-value>
10.28

$$$$
>  <compound>
C=C[C@@H]1C[C@]1(NC(=O)[C@@H]1C[C@@H]2CN1C(=O)[C@H](C(C)(C)C)NC(=O)O[C@@H]1C[C@H]1CCCCCc1c(nc3cc(C)ccc3c1OCCCN1CCOCC1)O2)C(=O)NS(=O)(=O)C1(C)CC1 [Example 147]

>  <property>
pKi

>  <endpoint-value>
9.59

$$$$
>  <compound>
C=C[C@@H]1C[C@]1(NC(=O)[C@@H]1C[C@@H]2CN1C(=O)[C@H](C1CCCCC1)NC(=O)O[C@@H]1C[C@H]1CCCCCc1c(nc3ccccc3c1OCCCN1CCC(C(F)(F)F)CC1)O2)C(=O)NS(=O)(=O)C1(C)CC1 [Example 167]

>  <property>
pKi

>  <endpoint-value>
8.89

$$$$

Let's switch to this compound now.
query: Quick one: pKi for C=C[C@@H]1C[C@]1(NC(=O)[C@@H]1C[C@@H]2CN1C(=O)[C@H](C(C)(C)C)NC(=O)O[C@@H]1C[C@H]1CCCCCc1c(nc3ccccc3c1OCCN1CCOCC1)O2)C(=O)NS(=O)(=O)C1(C)CC1 [Example 113] ?
result: 10.05

----------
# Ki listing for each entry below
Target: HCV genotype 1b (BK) NS3 modified enzyme with a R155K mutation (Hepatitis C virus genotype 1b, UniProt P26663, R1181K)
Construct: HCV genotype 1b (BK) NS3 modified enzyme
Experiment: HCV NS3 protease time-resolved fluorescence (TRF) assay, genotype 1b R155K
Type: biochemical
Conditions: Ki 1b R155K, second of two values printed in the cell (not explained)
Structures can show the parent of a compound that is named as a salt.
Give just the number in nM; leave the unit off.

Record excerpt, results attached:
>  <molecule>
C=C[C@@H]1C[C@]1(NC(=O)[C@@H]1C[C@@H]2CN1C(=O)[C@H](C1CCCCC1)NC(=O)O[C@@H]1C[C@H]1CCCCCc1c(nc3ccccc3c1OC1CCN(CCOC)CC1)O2)C(=O)NS(=O)(=O)C1(C)CC1 [Example 237, formate]

>  <Ki / nM>
0.098

$$$$
>  <molecule>
C=C[C@@H]1CC1(NC(=O)[C@@H]1C[C@@H]2CN1C(=O)[C@H](C1CCCCC1)NC(=O)O[C@@H]1C[C@H]1CCCCCc1c(nc3ccccc3c1OC1CCN(CCOC(F)(F)F)CC1)O2)C(=O)NS(=O)(=O)C1(C)CC1 (some centres unmarked)

>  <Ki / nM>
0.12

$$$$
>  <molecule>
C=C[C@@H]1C[C@]1(NC(=O)[C@@H]1C[C@@H]2CN1C(=O)[C@H](C1CCCCC1)NC(=O)O[C@@H]1C[C@H]1CCCCCc1c(nc3ccccc3c1OC1CCN(CCS(C)(=O)=O)CC1)O2)C(=O)NS(=O)(=O)C1(C)CC1

>  <Ki / nM>
0.215

$$$$
>  <molecule>
C=C[C@@H]1C[C@]1(NC(=O)[C@@H]1C[C@@H]2CN1C(=O)[C@H](C(C)(C)C)NC(=O)O[C@@H]1C[C@H]1CCCCCc1c(nc3ccccc3c1OC1CC3CCC(C1)N3CC)O2)C(=O)NS(=O)(=O)C1(C)CC1 (single isomer, unassigned) [Example 281]

>  <Ki / nM>
0.125

$$$$
>  <molecule>
C=C[C@@H]1C[C@]1(NC(=O)[C@@H]1C[C@@H]2CN1C(=O)[C@H](C1CCCCC1)NC(=O)O[C@@H]1C[C@H]1CCCCCc1c(nc3ccccc3c1OC1CCN(CC)CC1)O2)C(=O)NS(=O)(=O)C1(C)CC1 [Example 239, formate]

>  <Ki / nM>
0.064

$$$$

query: Fill in the blank: the reported Ki of C=C[C@@H]1C[C@]1(NC(=O)[C@@H]1C[C@@H]2CN1C(=O)[C@H](C(C)(C)C)NC(=O)O[C@@H]1C[C@H]1CCCCCc1c(nc3ccccc3c1OC1CCN(CC(F)(F)F)CC1)O2)C(=O)NS(=O)(=O)C1(C)CC1 is ____.
result: 1.38

query: One more molecule: C=C[C@@H]1CC1(NC(=O)[C@@H]1C[C@@H]2CN1C(=O)[C@H](C(C)(C)C)NC(=O)O[C@@H]1C[C@H]1CCCCCc1c(nc3ccccc3c1CN1CCOCC1)O2)C(=O)NS(=O)(=O)C1(C)CC1 (some centres unmarked)
result: 0.348

query: Now the same for C=C[C@@H]1C[C@]1(NC(=O)[C@@H]1C[C@@H]2CN1C(=O)[C@H](C1CCCCC1)NC(=O)O[C@@H]1C[C@H]1CCCCCc1c(nc3ccccc3c1OCCCN1CCN(C(=O)OC(C)(C)C)CC1)O2)C(=O)NS(=O)(=O)C1(C)CC1
result: 1.4

----------
Molecular target: HCV genotype 1b (BK) NS3 modified enzyme with a R155K mutation (Hepatitis C virus genotype 1b, UniProt P26663, R1181K)
Construct: HCV genotype 1b (BK) NS3 modified enzyme
Experiment: HCV NS3 protease time-resolved fluorescence (TRF) assay, genotype 1b R155K
Assay type: biochemical
Details: Ki 1b R155K, first of two values printed in the cell (not explained)
From the text: The HCV NS3 protease inhibitory activity of the present compounds may be tested using assays known in the art. One such assay is HCV NS3 protease time-resolved fluorescence (TRF) assay as described below and in International Patent Application Publication No. WO2006/102087. […] Product fluorescence is detected using either a VICTOR V2 or FUSION fluorophotometer (Perkin Elmer Life and Analytical Sciences) with excitation at 340 nm and emission at 615 nm with a 400 μs delay. […]
Here, each record is paired with measured Ki data.
Response body: numeric value in pM, unit text excluded.

query: Fill in: Ki of C=C[C@@H]1C[C@]1(NC(=O)[C@@H]1C[C@@H]2CN1C(=O)[C@H](C1CCCCC1)NC(=O)O[C@@H]1C[C@H]1CCCCCc1c(nc3ccccc3c1O[C@@H]1CCN(C(=O)OC(C)(C)C)C[C@@H]1F)O2)C(=O)NS(=O)(=O)C1(C)CC1 is ___
result: 120

query: Now this one: C=C[C@@H]1C[C@]1(NC(=O)[C@@H]1C[C@@H]2CN1C(=O)[C@H](C1(C)CCCCC1)NC(=O)O[C@@H]1C[C@H]1CCCCCc1c(nc3ccccc3c1OC1CCN(C)CC1)O2)C(=O)NS(=O)(=O)C1(C)CC1
result: 20

----------
Target: UniProt:Q81258
Experiment: HCV NS3 protease time-resolved fluorescence (TRF) assay, genotype 3a
Type: biochemical
Settings: Ki 3a
Where a name gives a salt, the structure may show the parent alone.
property: pKi
// pKi here means minus log10 of the molar concentration (mol/L)

>  <compound>
C=C[C@@H]1C[C@]1(NC(=O)[C@@H]1C[C@@H]2CN1C(=O)[C@H](C(C)(C)C)NC(=O)O[C@@H]1C[C@H]1CCCCCc1c(nc3ccccc3c1OCCCN1CC(F)(F)C1)O2)C(=O)NS(=O)(=O)C1(C)CC1

>  <pKi>
8.59

$$$$
>  <compound>
O=C1N[C@@H](C2CCCC2)C(=O)N2C[C@@H](C[C@H]2C(=O)N[C@]2(C(=O)NS(=O)(=O)C3CC3)C[C@H]2C2CC2)Oc2nc3ccccc3c(O)c2C/C=C/CC[C@@H]2CCC[C@H]2O1

>  <pKi>
8.02

$$$$
>  <compound>
C=C[C@@H]1C[C@]1(NC(=O)[C@@H]1C[C@@H]2CN1C(=O)[C@H](C(C)(C)C)NC(=O)O[C@@H]1C[C@H]1CCCCCc1c(nc3ccccc3c1OC1C3COCC1CN(CC1CC1)C3)O2)C(=O)NS(=O)(=O)C1(C)CC1 (stereo partly drawn) [Example 256, formate]

>  <pKi>
8.26

$$$$

query: # get_value(readout='pKi', item= C=C[C@@H]1C[C@]1(NC(=O)[C@@H]1C[C@@H]2CN1C(=O)[C@H](C1CCCC1)NC(=O)O[C@@H]1CCC[C@H]1CC/C=C/Cc1c(nc3ccccc3c1OCCN1CCCC1=O)O2)C(=O)NS(=O)(=O)C1CC1 )
result: 8.74

query: Next: C=C[C@@H]1C[C@]1(NC(=O)[C@@H]1C[C@@H]2CN1C(=O)[C@H](C(C)(C)C)NC(=O)O[C@@H]1C[C@H]1CCCCCc1c(nc3ccccc3c1OCCCNC1CC1)O2)C(=O)NS(=O)(=O)C1(C)CC1
result: 9.02

query: C=C[C@@H]1C[C@]1(NC(=O)[C@@H]1C[C@@H]2CN1C(=O)[C@H](C(C)(C)C)NC(=O)O[C@@H]1C[C@H]1CCCCCc1c(nc3ccccc3c1-c1cccnc1)O2)C(=O)NS(=O)(=O)C1(C)CC1 , same question.
result: 6.67

query: Also C=C[C@@H]1C[C@]1(NC(=O)[C@@H]1C[C@@H]2CN1C(=O)[C@H](C(C)(C)C)NC(=O)O[C@@H]1C[C@H]1CCCCCc1c(nc3ccccc3c1OCCCN(C)CC1CCC(=O)N1)O2)C(=O)NS(=O)(=O)C1(C)CC1 (stereo partly drawn) , if possible.
result: 9.18

query: Continue with C=C[C@@H]1C[C@]1(NC(=O)[C@@H]1C[C@@H]2CN1C(=O)[C@H](C(C)(C)C)NC(=O)O[C@@H]1C[C@H]1CCCCCc1c(nc3ccccc3c1OCCCN1CC(C#N)C1)O2)C(=O)NS(=O)(=O)C1(C)CC1
result: 8.96

query: Now consider C=C[C@@H]1C[C@]1(NC(=O)[C@@H]1C[C@@H]2CN1C(=O)[C@H](C(C)(C)C)NC(=O)O[C@@H]1C[C@H]1CCCCCc1c(nc3cc(C(C)C)ccc3c1OCCCN1CCCC1)O2)C(=O)NS(=O)(=O)C1(C)CC1 .
result: 9.28
